- Tested on: UACC-62 melanoma
- assay: NCI-60 one-dose screen, 48 h
- run conditions: 10 µM unless noted
- Protocol: Growth inhibition of the UACC-62 human tumor cell line is measured as a screen for anti-cancer activity. Cells are grown in 96 well plates and exposed to the test compound for 48 hours. Compounds are tested at a single concentration, which is 10^-5 M for most compounds. The reported endpoint is percent growth (GI% or GIPRCNT), where numbers from 0 - 100% represent growth inhibition, and numbers from -100% - 0 represent cell death. For example, a value of 40 represents 60% growth inhibition. […]
This is part of a sample that, as a whole, favours compounds with a hit. Of some 83,000 tested, about 20% had one in any assay. Calls of active or inactive are those of the source. How the source made its calls: active means growth percent below 10; inactive means the rest.
Hello, when you answer, please use one of the following outcomes: Yes = active, No = inactive

Example entries begin here.
{"columns": ["compound", "tested target", "label"],
 "data": [
  ["CCc1c2c(nc3ccc(OC(=O)OCc4ccc(B5OC(C)(C)C(C)(C)O5)cc4)cc13)-c1cc3c(c(=O)n1C2)COC(=O)[C@]3(O)CC", "UACC-62 melanoma", "Yes"],
  ["O=C(CCCCCCSc1nc(-c2ccccc2)cc(-c2ccc(Cl)cc2)n1)NO", "UACC-62 melanoma", "Yes"],
  ["COc1cccc(C(=O)NCCNc2cc(-c3cn(-c4ccccc4)nc3-c3cccc(OC)c3)ccn2)c1", "UACC-62 melanoma", "No"],
  ["O=C(Nc1cccc2c(O)c(N=Nc3ccc(S(=O)(=O)Nc4nccs4)cc3)cc(N=Nc3ccc(S(=O)(=O)Nc4nccs4)cc3)c12)C(Cl)Cl", "UACC-62 melanoma", "No"],
  ["Cc1cc(NCc2cc(Nc3ccnc4cc(Cl)ccc34)ccc2F)nc(N2CCCC2)n1", "UACC-62 melanoma", "Yes"],
  ["COC(=O)c1ccc(C2Nc3ccc(S(=O)(=O)Nc4ccc(C)c(C)c4)cc3C3OCCC23)cc1 (stereo not drawn)", "UACC-62 melanoma", "No"],
  ["COc1ccc2[nH]c(O)c(/C=c3/cc4c(c(-c5cc(OC)c(OC)c(OC)c5)n3)=Nc3ccccc3-4)c2c1", "UACC-62 melanoma", "No"]
]}

Could you now look at the following compound, please?
Request: How did this test come out for CCOC(=O)c1ccc(N2NC(=O)/C(=C/c3ccc([N+](=O)[O-])o3)C2=O)cc1 ?
Result: No

----------
- System: M14 melanoma
- assay: NCI-60 one-dose screen, 48 h
- run conditions: 10 µM unless noted
- Procedure: Growth inhibition of the M14 human tumor cell line is measured as a screen for anti-cancer activity. Cells are grown in 96 well plates and exposed to the test compound for 48 hours. Compounds are tested at a single concentration, which is 10^-5 M for most compounds. The reported endpoint is percent growth (GI% or GIPRCNT), where numbers from 0 - 100% represent growth inhibition, and numbers from -100% - 0 represent cell death. For example, a value of 40 represents 60% growth inhibition. […]
This is part of a sample that, as a whole, favours compounds with a hit. Of some 83,000 tested, about 20% had one in any assay. The source made the active and inactive calls. Rule for the calls: active = growth percent below 10; inactive = the rest.
Hello, when you answer, please use one of the following outcomes: active, inactive

Example entries begin here.
{"columns": ["compound", "label"],
 "data": [
  ["O=C(CSc1nccc(Nc2ccc(S(=O)(=O)Nc3nccs3)cc2)n1)c1ccc(F)cc1", "inactive"],
  ["O=C1NC(=Nc2ccc(Cl)cc2)S/C1=C\\c1cn(-c2ccccc2)nc1-c1ccccc1", "inactive"],
  ["COc1ccc(-c2ccc3c(c2)sc2nc(-c4ccc(F)cc4)cn23)cc1", "inactive"],
  ["COc1ccc(C(=NN=C(N)N)c2ccc(OC)cc2)cc1", "inactive"],
  ["S=C(c1ccc2c(c1)OCO2)N1CCN(c2ccccc2Cl)CC1", "inactive"]
]}

Request: How did this test come out for N=C1C(c2nc(-c3ccc(Br)cc3)cs2)=C(O)CN1Cc1cccnc1 ?
Result: inactive

Request: How did this test come out for O=C1C=C[C@]2(C[C@@H](c3cccc(C(F)(F)F)c3)O[C@@H](c3cccc(C(F)(F)F)c3)O2)O1 ?
Result: inactive

Request: How did this test come out for CC(C)Sc1nc(NNC(N)=S)c(C#N)c(-c2ccc(F)cc2)n1 ?
Result: inactive

----------
- System: HCC-2998 colon
- assay: NCI-60 one-dose screen, 48 h (100 = growth as untreated, 0 = no growth, -100 = all killed)
- run conditions: 10 µM unless noted
Compounds without any hit were thinned out: in the full panel of roughly 83,000, 20% have a hit.
# growth binned as bin 0 = under 30%, bin 1 = from 30% up to 70%, bin 2 = 70% and over

Example entries begin here.
{"columns": ["molecule", "label"],
 "data": [
  ["N#Cc1c(-c2ccccc2)cc(-c2ccc(Nc3nc(Nc4ccc(F)cc4)nc(Nc4ccc(F)cc4)n3)cc2)nc1N", "bin 1"],
  ["Cc1ccc(NCCN(C)C)c2c(=O)c3ccccc3sc12", "bin 0"],
  ["Cc1cc(NCCCCNc2ccnc3cc(Cl)ccc23)nc(Nc2ccc(C(=O)N3CCCCC3)cc2)n1", "bin 0"],
  ["Cc1ccc(C(=O)CSc2nc(-c3ccc(Br)cc3)c(C#N)c(=O)[nH]2)cc1", "bin 2"],
  ["COc1ccc2[nH]c(O)c(/C=c3/cc4c(c(-c5cc(OC)c(OC)c(OC)c5)n3)=Nc3ccccc3-4)c2c1", "bin 2"]
]}

Could you now look at the following compound, please?
Request: Band for the recorded growth of N/C(=N\c1nc2ccccc2s1)NC(=O)Nc1cccc(Cl)c1 ?
Result: bin 2

----------
Entries annotated with measured growth
- Test system: UACC-62 melanoma
- assay: NCI-60 one-dose screen, 48 h (100 = growth as untreated, 0 = no growth, -100 = all killed)
- run conditions: 10 µM unless noted
About 83,000 compounds went through this panel and 20% of them were active in at least one assay; those are over-represented in the sample as a whole.
Quick note: give the figure in %, leave out the unit.

{"columns": ["compound", "value observed"],
 "data": [
  ["CCc1ccccc1NC(=O)/C(C#N)=C/c1ccc(OC)cc1", 81.6],
  ["NC(=N\\N=C/c1cccc([N+](=O)[O-])c1)/C(N)=N\\N=C/c1cccc([N+](=O)[O-])c1", 65],
  ["CCOc1ccccc1-c1cc(-c2cccs2)c(C#N)c(=O)[nH]1", 63.7],
  ["CC(C)(C)OC(=O)Nc1ccc2c(c1)C(NC(=O)Nc1cccc(C#N)c1)CC(C)(C)O2 (stereo not given)", 34.6],
  ["N[C@@H](CCCCNCC(=O)O)C(=O)O", 94.4]
]}

Lab note: measured growth of CSc1n(Cc2ccc3ccccc3c2)c(C)c[n+]1Cc1ccc2ccccc2c1 was -56.2

Lab note: measured growth of O=C(CSc1nnc(-c2ccc(NC(=O)c3cccnc3)cc2)o1)Nc1cccc(Br)c1 was 104

Lab note: measured growth of O=C1c2cccc(NCCN=Cc3cc([N+](=O)[O-])ccc3O)c2C(=O)c2c(NCCN=Cc3cc([N+](=O)[O-])ccc3O)cccc21 was 90.2

Lab note: measured growth of Cc1cc(/C=C\c2ccc3ccccc3[n+]2C)c(O)c2ncccc12 was -26.5

Lab note: measured growth of N#Cc1c(-c2ccccn2)[nH]c(=S)[nH]c1=O was 118

----------
- Tested on: SK-MEL-5 melanoma
- assay: NCI-60 one-dose screen, 48 h
- run conditions: 10 µM unless noted
This is part of a sample that, as a whole, favours compounds with a hit. Of some 83,000 tested, about 20% had one in any assay. Active and inactive are the calls of the source. Rule for the calls: active = growth percent below 10; inactive = the rest.
Hello, when you answer, please use one of the following outcomes: active, inactive

Request: How did this test come out for NS(=O)(=O)c1cnccc1Oc1cccc2cccnc12 ?
Result: inactive

Request: How did this test come out for O=C1c2cccc(NCCN=Cc3cc([N+](=O)[O-])ccc3O)c2C(=O)c2c(NCCN=Cc3cc([N+](=O)[O-])ccc3O)cccc21 ?
Result: inactive

Request: How did this test come out for Cc1cc(NCc2cc(Nc3ccnc4cc(Cl)ccc34)ccc2F)nc(N2CCN(C)CC2)n1 ?
Result: active

Request: How did this test come out for Cc1ccc(Nc2ccc(Nc3ccc(C)cc3)c3c2C(=O)c2cccc(O)c2C3=O)cc1 ?
Result: inactive

Request: How did this test come out for Cc1ccc2[nH]c(=O)c3c(c2c1)OC(N)=C(C#N)C31c2cc(Br)ccc2-c2ccc(Br)cc21 ?
Result: inactive

Request: How did this test come out for O=C(CSc1nnc(-c2ccc(NC(=O)c3cccnc3)cc2)o1)N[C@@H](Cc1ccc(O)cc1)C(=O)O ?
Result: inactive

----------
- Test system: MDA-MB-231 breast
- assay: NCI-60 one-dose screen, 48 h
- run conditions: 10 µM unless noted
The panel holds about 83,000 compounds, 20% with a hit somewhere; the sample as a whole holds those more often. Active and inactive are the calls of the source. Rule for the calls: active = growth percent below 10; inactive = the rest.
Hello, when you answer, please use one of the following outcomes: active, inactive

{"columns": ["molecule", "label"],
 "data": [
  ["O=C(Cc1ccc(F)c(F)c1)Nc1cc(C2(C(F)(F)F)CC2)nn1Cc1ccccc1", "active"]
]}

Request: How did this test come out for COc1ccc(C2=Nc3c(N)ncnc3NC(c3ccc4c(c3)OCO4)C2)cc1 (centres undefined) ?
Result: inactive

Request: How did this test come out for COc1ccc(C(=O)COc2ccc(/C=C3\Oc4ccccc4C3=O)cc2)cc1 ?
Result: inactive

Request: How did this test come out for Cc1cc(=O)[nH]c(N=Nc2c(O)[nH]c3ccccc23)n1 ?
Result: inactive

Request: How did this test come out for CC(=O)N1N=C(c2ccc(Nc3nc(Nc4ccc(F)cc4)nc(Nc4ccc(F)cc4)n3)cc2)CC1c1cccc([N+](=O)[O-])c1 (centres undefined) ?
Result: inactive

Request: How did this test come out for O=S(=O)(Nc1cccc(Cl)c1)c1ccc(-c2cnc(C3CC3)o2)cc1 ?
Result: inactive

Request: How did this test come out for COc1ccc(-c2cc(-c3cc(OC)ccc3OC)nc(SCC(=O)c3ccccc3)c2C#N)cc1 ?
Result: inactive

Request: How did this test come out for O=C(O)C1CCC(=O)N1C(=O)OCc1ccccc1 (centres undefined) ?
Result: inactive

Request: How did this test come out for COc1ccc(C(=O)/C=C/c2c(C(F)(F)F)nc3sccn23)cc1OC ?
Result: inactive
